Tested on: 349418-098-R-PDC complex spheroid viability;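 also: spheroids exposed to compound for seven days before viability readout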
Assay: Anticancer human tumor 349418-098-R-PDC patient-derived lung adenocarcinoma cell line growth inhibition [RAS]; active = viability on the fitted dose curve at most 10% of control; inactive = the rest
Details: second compound 0.316 µM; first compound 10 µM
Labels: T = active, F = inactive

| compound | assigned-label |
| --- | --- |
| CCC(CC)c1cc(NC2CCC(N)C2)n2nccc2n1 (stereo not given) + C#Cc1c(F)ccc2cc(O)cc(-c3ncc4c(N5CC6CCC(C5)N6)nc(OCC56CCCN5CC(F)C6)nc4c3F)c12 | T |
| CC1(O)CCCC1n1c(=O)c(C(F)F)cc2cnc(NC3CCN(S(C)(=O)=O)CC3)nc21 (stereo not given) + C#Cc1c(F)ccc2cc(O)cc(-c3ncc4c(N5CC6CCC(C5)N6)nc(OCC56CCCN5CC(F)C6)nc4c3F)c12 | F |
| NC1c2ccccc2OC12CCN(c1cnc3c(N4CCCc5ncccc54)n[nH]c3n1)CC2 (stereo not given) + C#Cc1c(F)ccc2cc(O)cc(-c3ncc4c(N5CC6CCC(C5)N6)nc(OCC56CCCN5CC(F)C6)nc4c3F)c12 | F |
| CC(C)NCC(C(=O)N1CCN(c2ncnc3c2C(C)CC3O)CC1)c1ccc(Cl)cc1 (stereo not given) + C=CC(=O)N1CCN(c2nc(OCC3CCCN3C)nc3c(F)c(-c4nc(N)cc(C)c4C(F)(F)F)c(Cl)cc23)C(C)C1 | F |
| C[C@@H](NC(=O)c1ncnc(N)c1Cl)c1ncc(C(=O)Nc2cc(C(F)(F)F)c(Cl)cn2)s1 + C#Cc1c(F)ccc2cc(O)cc(-c3ncc4c(N5CC6CCC(C5)N6)nc(OCC56CCCN5CC(F)C6)nc4c3F)c12 | F |
